# MDA-MB-231 breast cancer cells: GI50 values follow

GET GI50 where system = MDA-MB-231 breast cancer cells and item = O=C(N[C@H](c1ccccn1)C1CC1)c1ccc2[nH]nc(-c3ccc(N4CC5(COC5)C4)cc3)c2c1
≤ 100 nM

GET GI50 where system = MDA-MB-231 breast cancer cells and item = CC(C)[C@H](NC(=O)c1ccc2[nH]nc(-c3ccc(N4CC5(CN(C)C5)C4)cc3)c2c1)c1ccccc1Cl
≤ 100 nM

GET GI50 where system = MDA-MB-231 breast cancer cells and item = O=C(N[C@H](c1ccccn1)C1CCCC1)c1ccc2[nH]nc(-c3ccc(N4CC5(CC(O)C5)C4)cc3)c2c1
≤ 100 nM

GET GI50 where system = MDA-MB-231 breast cancer cells and item = O=C(NC(c1ccccn1)C1CC1)c1ccc2[nH]nc(-c3ccc(N4CCC5(COC5)C4)cc3)c2c1 (stereo not shown)
100 to 500 nM

GET GI50 where system = MDA-MB-231 breast cancer cells and item = CC(C)[C@@H](NC(=O)c1ccc2[nH]nc(-c3ccc(N4CC5(COC5)C4)cc3)c2c1)c1ccccc1Cl
100 to 500 nM

GET GI50 where system = MDA-MB-231 breast cancer cells and item = O=C(N[C@@H](c1ccccn1)C1CC1)c1ccc2[nH]nc(-c3ccc(N4CC5(COC5)C4)cc3)c2c1
100 to 500 nM

GET GI50 where system = MDA-MB-231 breast cancer cells and item = O=C(N[C@@H](c1ncccn1)C1CCCC1)c1ccc2[nH]nc(-c3ccc(N4CCC45COC5)cc3)c2c1
≤ 100 nM

GET GI50 where system = MDA-MB-231 breast cancer cells and item = CC(C)C[C@H](NC(=O)c1ccc2[nH]nc(-c3ccc(N4CCC45COC5)cc3)c2c1)c1ccccn1
100 to 500 nM

GET GI50 where system = MDA-MB-231 breast cancer cells and item = O=C(N[C@H](c1ccccn1)C1CC1)c1ccc2[nH]nc(-c3ccc(N4CC5(CCO5)C4)cc3)c2c1
≤ 100 nM

---

# MDA-MB-231 breast cancer cells: GI50 values follow

O=C(NC(c1ccccn1)C1CC1)c1ccc2[nH]nc(-c3ccc(N4CCC5(CC4)COC5)cc3)c2c1 (centres unmarked) : 100 to 500 nM
O=C(N[C@H](c1ncccn1)C1CCCC1)c1ccc2[nH]nc(-c3ccc(N4CC5(COC5)C4)cc3)c2c1 : ≤ 100 nM
CC(C)[C@H](NC(=O)c1ccc2[nH]nc(-c3ccc(N4CC5(COC5)C4)cc3)c2c1)c1ccccc1Cl : ≤ 100 nM
CC(C)[C@H](NC(=O)c1ccc2[nH]nc(-c3ccc(N4CC5(C4)CN(C4COC4)C5)cc3)c2c1)c1ccccc1Cl : ≤ 100 nM
O=C(NC(c1ccccn1)C1CC1)c1ccc2[nH]nc(-c3ccc(N4CC5(COC5)C4)cc3)c2c1 (centres unmarked) : ≤ 100 nM
O=C(N[C@H](c1ccccn1)C1CCCC1)c1ccc2[nH]nc(-c3ccc(N4CC5(COC5)C4)cc3)c2c1 : ≤ 100 nM
O=C(N[C@H](c1ccccc1)C1CC1)c1ccc2[nH]nc(-c3ccc(N4CC5(CCOCC5)C4)cc3)c2c1 : 100 to 500 nM
Cc1ccccc1C(NC(=O)c1ccc2[nH]nc(-c3ccc(N4CC5(COC5)C4)cc3)c2c1)C1CC1 (centres unmarked) : 100 to 500 nM

Entry O=C(NC(c1ccccn1)C1CCCC1)c1ccc2[nH]nc(-c3ccc(N4CC5(COC5)C4)cc3)c2c1 (centres unmarked) needs its GI50 filled in; supply it.
≤ 100 nM

Entry O=C(N[C@@H](c1ccccn1)C1CCCC1)c1ccc2[nH]nc(-c3ccc(N4CC5(COC5)C4)cc3)c2c1 needs its GI50 filled in; supply it.
≤ 100 nM

Entry CC(C)[C@H](NC(=O)c1ccc2[nH]nc(-c3ccc(N4CC5(CCO5)C4)cc3)c2c1)c1ccccc1Cl needs its GI50 filled in; supply it.
≤ 100 nM
